system: NCI/ADR-RES ovarian; assay: NCI-60 one-dose screen, 48 h; settings: 10 µM
About 83,000 compounds went through this panel and 20% of them were active in at least one assay; those are over-represented in the sample as a whole. The source made the active and inactive calls. Rule for the calls: active = growth percent below 10; inactive = the rest.
Classes used: active, inactive

| Compound | Group |
| --- | --- |
| O=C(c1ccc(Cl)cc1)C1[C@H](c2ccccc2Br)[C@@H](c2ccccc2)NC12C(=O)Nc1ccccc12 (stereo not given in full) | active |
| CN(C)c1cccc2c(S(=O)(=O)Nc3cccc(-c4csc(NC(=O)CCCCCN5CCN(c6cc7c(cc6F)C(=O)N(C6CCC(=O)NC6=O)C7=O)CC5)n4)c3)cccc12 (stereo not given) | inactive |
| Cc1ccc(NC(=O)NCn2c(=O)[nH]c3ccccc3c2=O)cc1 | inactive |
| COc1ccc(-c2nc(Nc3ccccc3S(N)(=O)=O)c3ccccc3n2)cc1 | inactive |
| C=C(C)[C@@H]1CC[C@]2(C(=O)OC)CC[C@]3(C)[C@H](CC[C@@H]4[C@@]5(C)CC[C@H](N)C(C)(C)[C@@H]5CC[C@]43C)[C@@H]12 | active |
| O=C(Nc1nc2ccccc2s1)c1ccc(Br)cc1 | inactive |
| O=C1Nc2cc(-c3ccc(NC(=O)c4cccc([N+](=O)[O-])c4)cc3)ccc2/C1=C/c1ccc[nH]1 | inactive |
| Cc1cc2c(c(O)c1Br)-c1ncoc1C(=O)[C@]1(C)CC[C@H](C(C)C)[C@H]21 | inactive |
| Cn1cc(-c2cc(N)n3nc(-c4c[nH]c5ccc(Br)cc45)cc3n2)c2cccnc21 | active |
| Cc1ccc(/C=C/C(=O)c2ccc(NC(=O)CSc3nnc(-c4c[nH]c5ccccc45)n3-c3ccccc3)cc2)c(C)c1 | inactive |
| CONC[C@]1(C)C=C2C(=O)[C@](C)(O)C3(CC3)C(C)=C2[C@H]1O | active |
| O=C(O)CCCCCCCCCCN1C(=O)/C(=C/c2cnc(-c3ccccc3)s2)SC1=S | inactive |
| CCCCCCCCCCCCCCCCCCCC(=O)NCCc1c[nH]c2ccc(O)cc12 | inactive |
| COC(=O)CC1CC1C1Cc2c(nc(N(C)S(C)(=O)=O)nc2C(C)C)-c2ccc(F)cc21 (stereo not given) | inactive |
| CC(=O)Nc1nc(-c2ccc(N3CCN(C)CC3)c(NS(=O)(=O)c3ccc(C(F)(F)F)cc3)c2)cs1 | active |
| COc1ccc2[nH]cc(/C=N/Nc3cccc(Cl)n3)c2c1 | inactive |
| O=C(CNc1nc(-c2ccccc2)cs1)Nc1ccc(Br)cc1 | active |
| O=C(Cn1cc(CSc2nnc3oc4ccccc4n23)nn1)Nc1ccc(Br)cc1 | inactive |
| Brc1ccc(/C=N/Nc2ncnc3sc4c(c23)CCN(Cc2ccccc2)C4)cc1 | inactive |
| COC1CC(Cn2cc(COc3ccc4ccc(=O)oc4c3)nn2)C(OCc2ccccc2)C(OCc2ccccc2)C1OCc1ccccc1 (stereo not given) | inactive |
| O=C(c1ccc(Cl)cc1)C1[C@H](c2ccccc2Br)[C@@H](c2ccccc2)NC12C(=O)Nc1ccc(Br)cc12 (stereo not given in full) | active |
| CCCn1c(=O)c2[nH]c(-c3ccc(OCc4nc5ccc(C(F)(F)F)cc5[nH]4)cc3)nc2n(CCC)c1=O | inactive |
| Cc1nn(-c2ccccc2)c2ncn(CC(=O)N/N=C/c3c[nH]c4ccccc34)c(=O)c12 | inactive |
| COc1cc(/C=C/C(=O)c2ccc(F)cc2)ccc1Oc1nc(Nc2ccc(F)cc2)nc(N(C)C)n1 | inactive |
| C[C@H]1[C@H](C)CC[C@]2(COC(=O)CCC(=O)NCC#CCN3CCNCC3)CC[C@]3(C)C(=CC[C@@H]4[C@@]5(C)CCCNC(C)(C)[C@@H]5CC[C@]43C)[C@H]12 | inactive |
| COc1ccccc1[C@H]1C(C(=O)c2ccc(O)cc2)C2(N[C@@H]1c1ccccc1)C(=O)Nc1ccc(Br)cc12 (stereo not given in full) | inactive |
| Clc1ccc(/C=N/Nc2ncnc3sc4c(c23)CCN(Cc2ccccc2)C4)cc1 | active |
| COc1cccc(/C=C2\N=C(C)N(CCc3ccc(S(N)(=O)=O)cc3)C2=O)c1 | inactive |
| O=c1[nH]c2ccccc2cc1CSc1ccc(Nc2nccc(-c3ccc4ccccc4c3)n2)cc1 | inactive |
| COc1ccc(C2N(c3ccc(Br)cc3)N=C(C(C)=O)N2[C@H]2[C@H](OC(C)=O)O[C@H](COC(C)=O)[C@@H](OC(C)=O)[C@@H]2OC(C)=O)cc1 (stereo not given in full) | inactive |
| Cc1ccc(C(=O)NCCCNc2nc(Nc3ccc(N4CCN(C)CC4)cc3)nc3ccsc23)cc1 | inactive |
| CC(=C(c1ccc(OCCN2CCCCCC2)cc1)c1ccc(OCCN2CCCCCC2)cc1)c1ccc(Cl)cc1 | active |
| Nc1nc(Nc2ccccc2)nn1Cc1c(Cl)cccc1Cl | inactive |
| O=C(N/C(=C1/OCCN1Cc1ccccc1)[P+](c1ccccc1)(c1ccccc1)c1ccccc1)c1ccccc1 | inactive |
| COc1ccc2c(c1)N=C(C(=O)O)/C2=C/c1sc(Nc2ccc(O)cc2)nc1O | inactive |

* * *

test system: OVCAR-8 ovarian; test: NCI-60 one-dose screen, 48 h; details: 10 µM
About 83,000 compounds went through this panel and 20% of them were active in at least one assay; those are over-represented in the sample as a whole. Calls of active or inactive are those of the source. The calls were made as follows: active = growth percent below 10; inactive = the rest.
Classes used: true (active), false (inactive)

| Structure Notation | Assay System | Group |
| --- | --- | --- |
| Cc1cccc(-c2nc(Nc3ccccc3C(=O)O)c3ccccc3n2)c1 | OVCAR-8 ovarian | false |
| COc1ccc2[nH]cc(/C=N/Nc3cccc(Cl)n3)c2c1 | OVCAR-8 ovarian | false |
| OCCNc1oc(-c2ccccc2)nc1[P+](c1ccccc1)(c1ccccc1)c1ccccc1 | OVCAR-8 ovarian | true |
| O=C(/C=C/Nc1ccccc1)c1ccc2c(c1)Nc1ccccc1S2 | OVCAR-8 ovarian | false |
| O=C(CSc1nnc(-c2c[nH]c3ccccc23)n1-c1ccccc1)Nc1ccc(C(=O)/C=C/c2ccc(Br)cc2)cc1 | OVCAR-8 ovarian | false |
| CN1CCc2c(sc3ncnc(N/N=C/c4cn(-c5ccccc5)nc4-c4ccc(Br)cc4)c23)C1 | OVCAR-8 ovarian | true |
| COc1ccc(-c2c(N)c(=O)n(C)c3ccccc23)cc1 | OVCAR-8 ovarian | false |
| N#Cc1ccc(-c2nn(-c3ccc(C(=O)O)cc3)cc2CNc2cc(Cl)cc(C(F)(F)F)c2)cc1 | OVCAR-8 ovarian | false |
| O=C(c1ccccc1)n1ccc(-c2cc3cc(Br)ccc3oc2=O)n1 | OVCAR-8 ovarian | false |
| COc1cc2c3c(n(CCCN4CCOCC4)c(=O)c2cc1OC)-c1nc2c(cc1C3=O)OCO2 | OVCAR-8 ovarian | false |

* * *

The reader will find reported growth values listed item by item below.
tested on: UO-31 renal; assay: NCI-60 one-dose screen, 48 h (100 = growth as untreated, 0 = no growth, -100 = all killed); conditions: 10 µM
This is part of a sample that, as a whole, favours compounds with a hit. Of some 83,000 tested, about 20% had one in any assay.

| Molecule | growth (%) |
| --- | --- |
| CC(=O)Nc1nc(-c2ccc(N3CCN(C)CC3)c(NS(=O)(=O)c3ccc(C(F)(F)F)cc3)c2)cs1 | 24.9 |
| COc1ccc(-c2nc(Nc3ccccc3S(N)(=O)=O)c3ccccc3n2)cc1 | 29.2 |
| Cc1ccn2c(C(=O)c3ccc(Br)cc3)cc(-c3cc(-c4ccc(N(C)C)cc4)c(C#N)c(N)n3)c2c1 | 63.3 |
| O=C1CCC(N2Cc3cc(NC(=O)COc4ccccc4)ccc3C2=O)C(=O)N1 (stereo not given) | 28.5 |
| CN1C(=O)/C(=C/c2nccs2)SC1=S | 78.7 |

* * *

tested on: A549/ATCC NSCLC; assay: NCI-60 one-dose screen, 48 h (100 = growth as untreated, 0 = no growth, -100 = all killed); conditions: 10 µM
This is part of a sample that, as a whole, favours compounds with a hit. Of some 83,000 tested, about 20% had one in any assay.
Kindly apply the following: YES if growth is less than 70%, NO in every other case.

| Compound | Group |
| --- | --- |
| Cn1c(O)c(N=Nc2nc(-c3cc4ccccc4oc3=O)cs2)c2cc(Br)ccc21 | NO |
| CC[C@@]1(O)C(=O)OCc2c1cc1n(c2=O)Cc2c-1nc1cc(F)c(C)c3c1c2[C@@H](N)CC3 | YES |
| COc1cnc2c(c1)C(=O)c1c-2n(CCCNC(C)C)c(=O)c2cc(OC)c(OC)cc12 | YES |
| CN1C(=O)N(C)C2SC(N/N=C/C=C/c3ccccc3)=NC21 (configuration not stated) | NO |
| CN1CCN(c2ccc(C(=O)/C=C/c3ccc(C#N)cc3)cc2)CC1 | NO |
| C/C(=N\NC(N)=S)c1ccc(Nc2nc(SC(C)C)nc(-c3ccccc3)c2C#N)cc1 | YES |
| COc1ccc(CN2[C@@H](C(=O)NCc3ccc(C(=O)NO)cc3)Cc3c([nH]c4ccccc34)[C@@H]2C)cc1 | YES |
| Cc1ccc(-c2cc(C(=O)N=Nc3c(O)[nH]c4ccccc34)c3ccccc3n2)cc1 | YES |
| COc1ccc(N(C)c2cc(C#N)nc3ccccc23)cc1/C=C/C(=O)NO | YES |
| CCCCCc1ccc(S(=O)(=O)Nc2cc(-c3csc(N(C)C(C)=O)n3)ccc2N2CCN(C)CC2)cc1 | YES |
| Cc1nn(-c2ccccc2)c2ncn(CC(=O)N/N=C/c3c[nH]c4ccccc34)c(=O)c12 | NO |
| COc1ccc(CN2[C@H](C(=O)NCc3ccc(C(=O)NO)cc3)Cc3c([nH]c4ccccc34)[C@H]2C2CC2)cc1 | YES |
| N#Cc1c(NC(=O)c2ccc(C(F)(F)F)cc2)sc2c1CCC(=O)C2 | YES |
| N#Cc1ccc(NC(=O)CSc2ccc(-c3ccc(Br)cc3)nn2)cc1 | YES |
| COc1nccnc1NS(=O)(=O)c1ccc(NC2=C(Cl)C(=O)c3nc(C)ccc3C2=O)cc1 | NO |
| COC1=C[C@]23CCC(=O)N2CCc2cc4c(cc2[C@@H]3[C@@H]1OC(=O)CCCC(C)C)OCO4 | YES |
| NS(=O)(=O)c1ccc(NC(=O)CSc2ccc(-c3ccc(Cl)cc3)nn2)c(Br)c1 | YES |
| CN1CCN(Cc2ccc(NC(=O)c3cncc(C#Cc4cnc5ccc(N[C@H]6CCOC6)nn45)c3)cc2C(F)(F)F)CC1 | YES |
| Cc1ccc2nc(-c3ccc(-c4nnc(SCC(=O)Nc5ccc(Cl)cc5)o4)cc3)[nH]c2c1 | YES |
| Clc1ccc(/C=N/Nc2ncnc3sc4c(c23)CCN(Cc2ccccc2)C4)cc1 | YES |
| CC(=O)NS(=O)(=O)c1ccc(NC(=O)CSC2=NC(c3ccccc3)C(C(C)=O)=C(C)N2)cc1 (configuration not stated) | NO |
| NS(=O)(=O)c1ccc(N=Nc2c(O)n(CC(=O)Nc3ccccc3Br)c3ccccc23)cc1 | YES |
| Cc1cc(C)cc(Oc2cccc(-c3c(C)nnn3C3CCN(CCN(C)C)CC3)n2)c1 | YES |
| O=C(c1ccc(O)cc1)C1[C@H](c2ccc(Br)cc2)[C@@H](c2ccccc2)NC12C(=O)Nc1ccccc12 (some centres not stated) | YES |
| N#Cc1c(NC(=O)c2ccc(C(F)(F)F)cc2C(F)(F)F)sc2c1CCC(=O)C2 | YES |
| CN(C)c1cccc2c(S(=O)(=O)Nc3cccc(-c4csc(NC(=O)CCCCCN5CCN(c6cc7c(cc6F)C(=O)N(C6CCC(=O)NC6=O)C7=O)CC5)n4)c3)cccc12 (configuration not stated) | NO |
| COc1ccc(CN2[C@H](C(=O)NCCCCCCC(=O)NO)Cc3c([nH]c4ccccc34)[C@H]2C2CC2)cc1 | YES |
| CC(=O)NNc1ccc2nnc(-c3ccc(Br)cc3)n2n1 | NO |
| CN1CCN(c2ccc(Nc3nc(NCCNC(=O)c4ccc(C(F)(F)F)cc4)c4sccc4n3)cc2)CC1 | YES |
| CCOc1ccc(Nc2nc3ccccc3nc2Nc2ccc(OCC)cc2)cc1 | YES |
| Nc1nc(-c2ccccc2)cs1 | YES |
| O=c1[nH]c2ccccc2cc1CSc1ccc(Nc2nccc(-c3ccc4ccccc4c3)n2)cc1 | YES |
| COc1ccc(C(=O)CSc2nnc(-c3c[nH]c4ccccc34)n2-c2ccccc2)cc1 | NO |

The reported numbers originate from PubChem BioAssay (NCI).
